Tested on: Wolbachia pipientis
Experiment: Anti-Wolbachia Cell-Based Screen
Format: functional
Parameters: scale not given: in the data most compounds retested in dose-response had high values
Settings: 5 µM
Among all 48,000 compounds or so, about 13,000 (27%) showed an effect of 50% or more. This is one part of the list.
Reported Percent Effect values are given for each entry in this list.
Quick note: number first, unit second.

CN(Cc1ccco1)Cc1cnc2n1CCN(c1ccccn1)CC2.O=C(O)C(F)(F)F.O=C(O)C(F)(F)F : 10.62%
CC(=O)NC1CCCN(C(=O)CNc2cccc(C)c2Cl)C1 (configuration not stated) : 6.978%

Briefly, Percent Effect measured for CNC(=O)c1sc(C(NC(=O)c2ccccc2)C2CC2)nc1C (configuration not stated) : 1.807%

###

System: Wolbachia pipientis
Assay: Anti-Wolbachia Cell-Based Screen
Format: functional
Design: scale not given: in the data most compounds retested in dose-response had high values
Conditions: 5 µM
The campaign covered roughly 48,000 compounds. About 13,000 (27%) showed an effect of 50% or more. Some of the results follow.
Reported Percent Effect values are given for each entry in this list.
Number only, in %; omit the unit.

// worked examples, Percent Effect included
COc1ccc(-n2ncc(C(C)NCc3cnc(SC)nc3)c2C)cc1 (stereo unspecified) : 30.41
CN1Cc2c(C(=O)Nc3cccnc3)ncn2-c2ccccc2S1(=O)=O.O=C(O)C(F)(F)F : -4.618
O=C(c1ncn2c1CNS(=O)(=O)c1ccccc1-2)N1CC=CC1 : -15.18
COc1ccccc1C1(CNc2nnc(C)c(C)c2C#N)CCOCC1 : 0.2404
Cc1c(C(=O)NC2CCCC2)nnn1-c1ccccc1 : -16.4

Hey, Wolbachia pipientis data for "COc1ccccc1OC1CN(C(=O)CN(C)Cc2ccncc2)C1" : Percent Effect came out at -7.187

Hey, Wolbachia pipientis data for "Cc1nn(C)cc1CN1CCCn2nc(CNC(=O)C3CCC3)cc2C1" : Percent Effect came out at -11.1

###

Reported Percent Effect values are given for each entry in this list.
System: Wolbachia pipientis
Experiment: Anti-Wolbachia Cell-Based Screen
Format: functional
Parameters: scale not given: in the data most compounds retested in dose-response had high values
Conditions: 5 µM
Out of some 48,000 compounds screened, about 13,000 (27%) showed an effect of 50% or more. Some of the results follow.
Number only, in %; omit the unit.

// worked examples, Percent Effect included
CN1CCOC(CNCc2ccc(OCc3ccccn3)cc2)C1 (configuration not stated) : 111
CN(C)Cc1csc(-c2nccn2CCc2cccnc2)c1 : -6.294
CCc1cc(NCc2cc(CC(C)C)on2)n2nccc2n1 : -11.32
c1ccc(CO[C@H]2CN(c3ncccn3)C[C@@]23CCCO3)cc1 : 124.5
COc1ccccc1[C@@H]1CN(Cc2c(C)noc2C)C[C@H]1C(=O)O : -13.6

Briefly, Percent Effect measured for CCN1CCOC(CNCc2ccccc2OCc2ccccn2)C1 (configuration not stated) : 9.704

Briefly, Percent Effect measured for CN1CCOC(CNCc2cccc(OCc3ccccn3)c2)C1 (configuration not stated) : -19.83

Briefly, Percent Effect measured for "COc1cccc(C(=O)NS(=O)(=O)c2cccc(C#N)c2)c1" : 105.7

Briefly, Percent Effect measured for CCOC(C)c1nc(CN2CCN(c3ncc(C)cn3)CC2)cs1 (configuration not stated) : 0.6685

Briefly, Percent Effect measured for COc1ccc(N2CCCC3(C2)CN(c2ncccn2)CCO3)cc1 (configuration not stated) : 2.929

Briefly, Percent Effect measured for "Cn1nnc2cc(C(=O)NS(=O)(=O)c3cccc(C#N)c3)ccc21" : -4.102

Briefly, Percent Effect measured for "N#Cc1cccc(S(=O)(=O)NC(=O)COc2ccc3c(c2)CCC3)c1" : -8.201
